Please respond with reported protein stability index for every item in the list.
B1: RTN1 (parent)
chain: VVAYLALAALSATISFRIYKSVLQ

# Variants of: B1
# Assay info: protein stability index of a GFP-peptide fusion (GPS, HEK-293T) (PSI 1-6); higher = more stable;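 note: lentivirally expressed fusions sorted by FACS into six bins by GFP to DsRed ratio, PSI derived from sequencing read proportions per bin multiplied by bin number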
# Condition parameters: c terminus: a fixed tail appended
Simply state the number, no unit and no words.

Data point: `A8Y` ; protein stability index = 2.76

# protein stability index of `V2P` = 1.66

// protein stability index value for `A3Y` : 3.35

Record `A3W` , field protein stability index: 2.72

Note to self: protein stability index recorded for `L10G` was 3.08

Per the records, this variant ( `L23H` ) has protein stability index equal to 3.01

GET /value?item= `Y19Q` &field=protein stability index returns 3.66

So, `S21N` ? Its protein stability index was 1.52

Value of measured protein stability index for the entry `T13I` : 2.86

Field protein stability index (entry `L10P` ) reads 2.69

Sure, the documented protein stability index for `R17K` is 2.03

Just so you know, measured protein stability index for `K20N` came out at 2.27

Record `K20A` . Reported protein stability index: 3.28

Looking up `R17N` , I found its protein stability index recorded as 4.14

Value of protein stability index reported for the variant `A8L` is 2.31

The measured protein stability index associated with `Y19M` reads 2.3

Reported protein stability index of `S11T` : 2.81

Input `A8Q` . Output protein stability index: 4.3

Given item `L5D` , the value recorded as its protein stability index is 2.42

Summary for this variant, `V2M` : protein stability index is 2.66

// protein stability index lookup, variant = `S21I` , result: 2.91

Data point: `L7T` ; protein stability index = 2.52
